- tested_target: AMP-activated protein kinase, AMPK (Homo sapiens) (UniProt P54646+O43741+P54619+Q9UGJ0+Q9Y478+Q13131+Q9UGI9)
- measurement_protocol: AMP-dependent Kinase enzyme assay. An in vitro enzyme assay that detects ADP turnover that is directly proportional to AMPK activity. This uses naive AMPK that is activated during the assay with MK-8722
- Type: functional
- Design: scale not given: direction of the effect not stated beside the values
- condition_details: 30 µM
Catalogue of Percent Effect values

compound=Cc1nc2ccccc2c(=O)n1CCC(=O)N1CCNC(=O)C1 measured_result=6.29%
compound=CCOc1cc(CN(C)CCOC)ccc1OC(F)F measured_result=2.19%
compound=COCCC(=O)N1CC[C@@H]2O[C@@H](C)C[C@H]2C1 measured_result=0.716%
compound="Cc1cn2c(n1)CCC(NC(=O)c1ccc(CS(C)(=O)=O)cc1)C2 (stereo not given)" measured_result=-4.52%

Let us move to another entry and its Percent Effect.
Input: What measured Percent Effect goes with Cc1ccsc1[C@@H]1CCN(C(=O)CCC(=O)N2CCCCCC2)C[C@H]1O ?
Output: -7.07%

----------
Items are presented alongside their recorded Percent Effect.
- tested_target: Proteasome subunit beta (Trypanosoma cruzi)
- Sequence (whole entry): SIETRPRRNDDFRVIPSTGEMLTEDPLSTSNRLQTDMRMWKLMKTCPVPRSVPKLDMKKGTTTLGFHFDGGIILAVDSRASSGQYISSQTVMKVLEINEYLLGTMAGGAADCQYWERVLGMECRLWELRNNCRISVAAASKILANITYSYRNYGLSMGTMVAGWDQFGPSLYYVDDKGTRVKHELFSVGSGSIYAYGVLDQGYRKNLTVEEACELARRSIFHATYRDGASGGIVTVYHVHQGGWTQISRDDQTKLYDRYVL
- measurement_protocol: Trypanosoma cruzi proteasome chymotrypsin-like activity (TcProtChymo) assay. Also: in the data most compounds retested in dose-response had high values.
- Type: functional
- Parameters: scale not given: direction of the effect not stated beside the values
- condition_details: 9.37 µM
Just the number in %, nothing appended.

molecule=O=C([C@H]1COC[C@H]2CN(C3CCCC3)C[C@H]21)N1CCCCO1 measurement_unit=% measured_result=2.39
molecule="O=C(NCC1CCCO1)c1c(-n2cnnn2)sc2c1CCC2 (configuration not stated)" measurement_unit=% measured_result=17.6
molecule="c1ccc(OCC2CC3(CCN(c4ncccn4)CC3)CO2)nc1 (configuration not stated)" measurement_unit=% measured_result=10.9

Input: Consider the molecule O=C(Cc1ccsc1)N1CCCC(c2n[nH]c3nccnc23)C1 (configuration not stated) and give its measured Percent Effect.
Output: 15.9

----------
Each entry below carries its reported Percent Effect.
- Species on record: Homo sapiens
- measurement_protocol: To identify inhibition of the IFN signalling (Jak-Stat) pathway via expression of an eGFP reporter gene under the control of an IFN-stimulated response element (ISRE) containing MxA promoter.
- Assay type: functional
- Design: scale not given: direction of the effect not stated beside the values
- condition_details: 30 µM
Express your answer in %, writing the number without its unit.

compound=CN(C)c1cc(C(=O)NCCc2n[nH]c(=O)[nH]2)ccn1 readout_kind="Percent Effect" measured_result=5.92

Input: For CCC1=N[C@@]2(CC[C@@H]3CN(CC4CC4)C[C@@H]32)C(=O)N1C , what is its reported Percent Effect?
Output: -28.1

Input: Try this compound next: O=C(CCC(=O)N1CCCC1c1cccs1)N1CCc2sccc2C1 (configuration not stated)
Output: 19.6

Input: // next record CC(O)CNCc1ccc(OCc2ccc3c(c2)OCCO3)cc1 (configuration not stated)
Output: -4.62

Input: Another compound: Cc1noc(C)c1CNCC1CCN(CC(O)c2ccccc2)CC1 (configuration not stated)
Output: -17.5

Input: Continue with CCc1n[nH]c(C2CN(C(=O)c3cnns3)CCO2)n1 (configuration not stated)
Output: 15.6
